target: rec-L-N-carbamoylase from A.a. (Paenarthrobacter aurescens, UniProt Q9F464); type: biochemical, Arthrobacter aurescens; conditions: substrate 1.8 mM in 0.1 M TRIS-HCl, pH 8.5; homogeneously purified enzyme; n.n. = can not be detected
Sequence (Q9F464 whole entry): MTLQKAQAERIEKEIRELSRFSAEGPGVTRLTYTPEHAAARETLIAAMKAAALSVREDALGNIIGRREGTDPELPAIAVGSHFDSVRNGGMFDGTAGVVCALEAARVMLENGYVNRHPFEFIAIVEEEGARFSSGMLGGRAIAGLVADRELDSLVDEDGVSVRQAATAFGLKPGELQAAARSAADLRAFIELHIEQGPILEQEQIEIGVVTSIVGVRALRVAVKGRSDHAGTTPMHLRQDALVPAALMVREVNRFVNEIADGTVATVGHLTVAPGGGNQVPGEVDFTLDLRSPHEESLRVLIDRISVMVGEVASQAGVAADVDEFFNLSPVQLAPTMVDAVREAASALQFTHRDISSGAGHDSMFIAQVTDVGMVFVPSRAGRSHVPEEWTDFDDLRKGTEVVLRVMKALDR
PARAMETER_MEASURED: Activity %

- N=C(N)NCCC[C@H](NC(N)=O)C(=O)O: n.n.
- NC(=O)N[C@H](Cc1c[nH]c2ccccc12)C(=O)O: n.n.
- NC(=O)N[C@@H](Cc1c[nH]c2ccccc12)C(=O)O: 100%
- NC(=O)NC(Cc1ccccc1)C(=O)O (racemic): 97%
- NC(=O)NCCC(=O)O: n.n.
- NC(=O)N[C@@H](Cc1cccs1)C(=O)O: 314%
- NC(=O)N[C@H](Cc1ccccc1)C(=O)O: n.n.
- NC(=O)N[C@@H](C(=O)O)c1ccccc1: n.n.
- NC(=O)NC(CC(=O)O)C(=O)O (racemic) [N-carbamoyl-D,L-aspartate]: n.n.
- O=CN[C@@H](CC(=O)O)C(=O)O [N-formyl-L-aspartate]: n.n.
- NC(=O)N[C@@H](CCC(=O)O)C(=O)O [N-carbamoyl-L-glutamate]: n.n.
- O=CNC(Cc1c[nH]c2ccccc12)C(=O)O (racemic): 97%
- CC(=O)NC(Cc1c[nH]c2ccccc12)C(=O)O (racemic): n.n.
- NC(=O)N[C@@H](Cc1ccc(O)cc1)C(=O)O: 126%
- NC(=O)N[C@H](C(=O)O)c1ccccc1: n.n.
